- TEST NAME: Volume of distribution at steady state in Sprague-Dawley rat at 2 mg/kg, iv measured up to 24 hrs by LC-MS-MS analysis
- Type: ADME, organism-based
- EXPERIMENTAL CONTEXT: in vivo, read-out: Vdss
MEASUREMENT TYPE: Vd (L/kg)
Respond with the bare value in L/kg.

{"CHEMICAL STRUCTURE": "O=C(NS(=O)(=O)c1cc(Cl)c(Cl)s1)OC/C=C1\\CCCc2cnn(Cc3ccc(Cl)cc3Cl)c21", "UNIT LABEL": "L/kg", "OBSERVED VALUE": 3.45}
{"CHEMICAL STRUCTURE": "O=C(NC/C=C1\\CCCc2cnn(Cc3ccc(Cl)cc3Cl)c21)NS(=O)(=O)c1cc(Cl)c(Cl)s1", "UNIT LABEL": "L/kg", "OBSERVED VALUE": 2.21}
{"CHEMICAL STRUCTURE": "O=C(NS(=O)(=O)c1ccc(Cl)cc1)OC/C=C1\\CCCc2cnn(Cc3ccc(Cl)cc3Cl)c21", "UNIT LABEL": "L/kg", "OBSERVED VALUE": 4.61}
{"CHEMICAL STRUCTURE": "Cc1cc(S(=O)(=O)NC(=O)NC/C(F)=C2\\CCCc3cnn(Cc4ccc(Cl)cc4Cl)c32)sc1Cl", "UNIT LABEL": "L/kg", "OBSERVED VALUE": 0.491}
{"CHEMICAL STRUCTURE": "COc1ccc(S(=O)(=O)NC(=O)NC/C(F)=C2\\CCCc3cnn(Cc4ccc(Cl)cc4Cl)c32)cc1Cl", "UNIT LABEL": "L/kg", "OBSERVED VALUE": 0.346}

Then there is this compound:
Request the reported Vd associated with `O=C(NC/C=C1\CCCc2cnn(Cc3ccc(Cl)cc3Cl)c21)NS(=O)(=O)c1ccc(Cl)cc1`
1.44

* * *

- TEST NAME: AUClast in Sprague-Dawley rat at 10 mg/kg, po measured up to 7 hrs by LC-MS-MS analysis
- Format: ADME, organism-based
- Parameters: route oral, dose 10 mg/kg, time <=7
- EXPERIMENTAL CONTEXT: in vivo
Measured AUC(0-t) at 7 h values are reported for all entries that follow.
Respond with the bare value in µM·h.

{"CHEMICAL STRUCTURE": "O=C(NC/C=C1\\CCCc2cnn(-c3ccc(C(F)(F)F)cc3)c21)NS(=O)(=O)c1cc(Cl)c(Cl)s1", "MEASUREMENT TYPE": "AUC(0-t) at 7 h", "UNIT LABEL": "µM·h", "OBSERVED VALUE": 7.39}
{"CHEMICAL STRUCTURE": "Cc1ncc(S(=O)(=O)NC(=O)NC/C=C2\\CCCc3cnn(Cc4ccc(Cl)cc4Cl)c32)s1", "MEASUREMENT TYPE": "AUC(0-t) at 7 h", "UNIT LABEL": "µM·h", "OBSERVED VALUE": 2.4}
{"CHEMICAL STRUCTURE": "O=C(NC/C(F)=C1\\CCCc2cnn(-c3ccc(C(F)(F)F)cc3)c21)NS(=O)(=O)c1cc(Cl)c(Cl)s1", "MEASUREMENT TYPE": "AUC(0-t) at 7 h", "UNIT LABEL": "µM·h", "OBSERVED VALUE": 3.68}

Request the reported AUC(0-t) at 7 h associated with `O=C(NC/C(F)=C1\CCCc2cnn(Cc3ccc(Cl)cc3Cl)c21)NS(=O)(=O)c1cc(Cl)c(Cl)s1`
16.6

* * *

- TEST NAME: Clearance in Sprague-Dawley rat at 2 mg/kg, iv measured up to 24 hrs by LC-MS-MS analysis
- Assay type: ADME, organism-based
- EXPERIMENTAL CONTEXT: in vivo
Measured clearance values are reported for all entries that follow.
Respond with the bare value in mL/min/kg.

{"CHEMICAL STRUCTURE": "O=C(NC/C=C1\\CCCc2cnn(Cc3ccc(Cl)cc3Cl)c21)NS(=O)(=O)c1ccc(Cl)cc1", "clearance / mL/min/kg": 14.9}

Request the reported clearance associated with `COc1ccc(S(=O)(=O)NC(=O)NC/C(F)=C2\CCCc3cnn(Cc4ccc(Cl)cc4Cl)c32)cc1Cl`
2.6

Request the reported clearance associated with `O=C(NS(=O)(=O)c1cc(Cl)c(Cl)s1)OC/C=C1\CCCc2cnn(Cc3ccc(Cl)cc3Cl)c21`
71.7

Request the reported clearance associated with `Cc1cc(S(=O)(=O)NC(=O)NC/C(F)=C2\CCCc3cnn(Cc4ccc(Cl)cc4Cl)c32)sc1Cl`
1.66

Request the reported clearance associated with `O=C(NS(=O)(=O)c1ccc(Cl)cc1)OC/C=C1\CCCc2cnn(Cc3ccc(Cl)cc3Cl)c21`
21.3

Request the reported clearance associated with `O=C(NC/C=C1\CCCc2cnn(Cc3ccc(Cl)cc3Cl)c21)NS(=O)(=O)c1cc(Cl)c(Cl)s1`
81.2

* * *

- TEST NAME: AUC(0 to 24 hrs) in Sprague-Dawley rat at 10 mg/kg, po measured up to 24 hrs by LC-MS-MS analysis
- Type: ADME, organism-based
- Parameters: route oral, dose 10 mg/kg, time <=24
- EXPERIMENTAL CONTEXT: in vivo
Lab note: anything with AUC(0-t) at or over 3 µM·h counts as TRUE; the rest go in FALSE.

Check out these entries, answers already filled in.
{"CHEMICAL STRUCTURE": "COc1ccc(S(=O)(=O)NC(=O)NC/C(F)=C2\\CCCc3cnn(Cc4ccc(Cl)cc4Cl)c32)cc1Cl", "LABEL CLASS": "TRUE"}
{"CHEMICAL STRUCTURE": "Cc1cc(S(=O)(=O)NC(=O)NC/C(F)=C2\\CCCc3cnn(Cc4ccc(Cl)cc4Cl)c32)sc1Cl", "LABEL CLASS": "TRUE"}
{"CHEMICAL STRUCTURE": "O=C(NS(=O)(=O)c1cc(Cl)c(Cl)s1)OC/C=C1\\CCCc2cnn(Cc3ccc(Cl)cc3Cl)c21", "LABEL CLASS": "FALSE"}
{"CHEMICAL STRUCTURE": "O=C(NC/C=C1\\CCCc2cnn(Cc3ccc(Cl)cc3Cl)c21)NS(=O)(=O)c1cc(Cl)c(Cl)s1", "LABEL CLASS": "FALSE"}
{"CHEMICAL STRUCTURE": "O=C(NC/C=C1\\CCCc2cnn(Cc3ccc(Cl)cc3Cl)c21)NS(=O)(=O)c1ccc(Cl)cc1", "LABEL CLASS": "TRUE"}

With those in mind, consider the next compound.
Quick check, AUC(0-t) >= 3 µM·h? `O=C(NS(=O)(=O)c1ccc(Cl)cc1)OC/C=C1\CCCc2cnn(Cc3ccc(Cl)cc3Cl)c21`
TRUE

* * *

- TESTED TARGET: Prostaglandin E2 receptor EP2 subtype (Homo sapiens, UniProt P43116)
- Sequence (P43116 whole entry): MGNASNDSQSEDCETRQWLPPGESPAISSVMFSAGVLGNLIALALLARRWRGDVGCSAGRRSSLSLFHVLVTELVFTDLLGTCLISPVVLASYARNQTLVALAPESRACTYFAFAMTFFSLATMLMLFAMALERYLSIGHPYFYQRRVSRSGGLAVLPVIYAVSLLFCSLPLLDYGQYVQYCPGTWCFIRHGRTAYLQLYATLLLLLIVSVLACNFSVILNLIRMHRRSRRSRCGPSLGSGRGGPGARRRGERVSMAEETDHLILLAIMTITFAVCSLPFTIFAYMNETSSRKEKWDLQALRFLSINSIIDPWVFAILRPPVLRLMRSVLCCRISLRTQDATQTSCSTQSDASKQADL
- TEST NAME: Binding affinity to human EP2 receptor assessed as inhibition constant
MEASUREMENT TYPE: Ki

Request the reported Ki associated with `O=C(NC/C=C1\CCCc2cnn(Cc3ccc(Cl)cc3Cl)c21)NS(=O)(=O)c1ccc(Cl)cc1`
> 10 µM

* * *

- TEST NAME: Cmax in Sprague-Dawley rat at 10 mg/kg, po measured up to 7 hrs by LC-MS-MS analysis
- Format: ADME, organism-based
- Parameters: route oral, dose 10 mg/kg, time <=7
- EXPERIMENTAL CONTEXT: in vivo
Measured Cmax values are reported for all entries that follow.
Respond with the bare value in nM.

Some solved cases for reference:
{"CHEMICAL STRUCTURE": "Cc1cc(S(=O)(=O)NC(=O)NC/C(F)=C2\\CCCc3cnn(Cc4ccc(Cl)cc4Cl)c32)sc1Cl", "Cmax [nM]": 11200}
{"CHEMICAL STRUCTURE": "O=C(NC/C(F)=C1\\CCCc2cnn(-c3ccc(C(F)(F)F)cc3)c21)NS(=O)(=O)c1cc(Cl)c(Cl)s1", "Cmax [nM]": 700}
{"CHEMICAL STRUCTURE": "Cc1ncc(S(=O)(=O)NC(=O)NC/C=C2\\CCCc3cnn(Cc4ccc(Cl)cc4Cl)c32)s1", "Cmax [nM]": 510}
{"CHEMICAL STRUCTURE": "COc1ccc(Cl)cc1S(=O)(=O)NC(=O)NC/C(F)=C1\\CCCc2cnn(Cc3ccc(Cl)cc3Cl)c21", "Cmax [nM]": 4750}
{"CHEMICAL STRUCTURE": "O=C(NC/C=C1\\CCCc2cnn(-c3ccc(C(F)(F)F)cc3)c21)NS(=O)(=O)c1cc(Cl)c(Cl)s1", "Cmax [nM]": 1540}
{"CHEMICAL STRUCTURE": "COc1ccc(S(=O)(=O)NC(=O)NC/C(F)=C2\\CCCc3cnn(Cc4ccc(Cl)cc4Cl)c32)cc1Cl", "Cmax [nM]": 7100}

Request the reported Cmax associated with `O=C(NC/C=C1\CCCc2cnn(C3CCN(c4ccc(F)cc4)CC3)c21)NS(=O)(=O)c1cc(Cl)c(Cl)s1`
130

Request the reported Cmax associated with `O=C(NC/C(F)=C1\CCCc2cnn(Cc3ccc(Cl)cc3Cl)c21)NS(=O)(=O)c1cc(Cl)c(Cl)s1`
3820
